# maps each entry to its normalized growth
- PROTOCOL NOTES: chemical genetic growth profiling, strain panel (AID 1159580);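 further: tested at 20 µM; growth read once vehicle control cultures reached saturation at 30 °C; 1 = growth at the plate median or of vehicle wells; lower values mean less growth of the strain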
- TEST SETTINGS: S. cerevisiae deletion strains, growth OD, locus YCL029C, strain bik1, active compounds read low
Out of some 5,500 compounds screened, about 2,000 (36%) were called active. Not shown: some 18% with an inconclusive outcome. This is one part of the list.

{"MOLECULE": "Cc1cccc(C)c1NC(=O)C1CCCCN1C (stereo unspecified)", "normalized growth": "1.02 (inactive)"}
{"MOLECULE": "Clc1ccc(COC(Cn2ccnc2)c2ccc(Cl)cc2Cl)c(Cl)c1 (stereo unspecified)", "normalized growth": "0.0612 (active)"}
{"MOLECULE": "C[C@]12CCC3C(CC[C@H]4C[C@@H](O)CC[C@]34C)C1CC[C@@H]2O (stereo partly specified)", "normalized growth": "0.968 (inactive)"}
{"MOLECULE": "O=C(O)COc1ccc(Cl)cc1Cl", "normalized growth": "1.03 (inactive)"}
{"MOLECULE": "COC1C=CC23c4cc5c(cc4CN(CC2O)[C@@H]3C1)OCO5 (stereo partly specified)", "normalized growth": "1 (inactive)"}
{"MOLECULE": "CC1CCC(NC(=O)N(CCCl)N=O)CC1 (stereo unspecified)", "normalized growth": "1.01 (inactive)"}
{"MOLECULE": "CN1CCC[C@@H]1CCO[C@](C)(c1ccccc1)c1ccc(Cl)cc1", "normalized growth": "0.991 (inactive)"}
{"MOLECULE": "CC12CCC3C(=CCc4cc(O)ccc43)C1CCC2=O (stereo unspecified)", "normalized growth": "0.995 (inactive)"}
{"MOLECULE": "C[C@]12C=CC(=O)C=C1CCC1C2[C@@H](O)C[C@@]2(C)C1CC[C@]2(O)C(=O)CO (stereo partly specified)", "normalized growth": "0.985 (inactive)"}
{"MOLECULE": "CCC(C)C(=O)c1c(O)c(C)c2oc3c(C)c(O)c(C(=O)C(C)CC)c(O)c3c2c1O (stereo unspecified)", "normalized growth": "0.943 (inactive)"}
{"MOLECULE": "CCCNC(=O)NS(=O)(=O)c1ccc(Cl)cc1", "normalized growth": "1.01 (inactive)"}
{"MOLECULE": "CC(=O)O[C@H]1C[C@@]2(C)[C@@H](C[C@@H](O)C3[C@]2(C)CC[C@H]2[C@H](C)[C@H](O)CC[C@]32C)/C1=C(/CCC=C(C)C)C(=O)O (stereo partly specified)", "normalized growth": "1.03 (inactive)"}
{"MOLECULE": "Oc1c(Cl)cc(Cl)c(Cl)c1Cc1c(O)c(Cl)cc(Cl)c1Cl", "normalized growth": "0.0602 (active)"}
{"MOLECULE": "CC(=O)O[C@]1(C)CC[C@@]23CC1C(C)(C)[C@@H]2CC[C@H]3C", "normalized growth": "1.03 (inactive)"}
{"MOLECULE": "COC(=O)/C(C)=C\\CC12OC(C)(C)C3CC(C=C4C(=O)c5c(OC)c6c(c(CC=C(C)C)c5OC431)OC(C)(CCC=C(C)C)C=C6)C2=O (stereo unspecified)", "normalized growth": "0.983 (inactive)"}
{"MOLECULE": "C[C@]12CCC3C(CC[C@H]4C[C@H](O)CC[C@]34C)C1CC[C@@H]2O (stereo partly specified)", "normalized growth": "0.948 (inactive)"}
{"MOLECULE": "COc1ccc2c(c1)OCC(Cc1ccc(OC)c(OC(C)=O)c1)C2=O (stereo unspecified)", "normalized growth": "1.01 (inactive)"}
{"MOLECULE": "C[C@]12CCC3c4ccc(OC(=O)CCC(=O)O)cc4CCC3C1CCC2=O (stereo partly specified)", "normalized growth": "0.97 (inactive)"}
{"MOLECULE": "NC(N)=NCCCCN=C(N)N", "normalized growth": "0.989 (inactive)"}
{"MOLECULE": "CC(C)c1nc(N(C)S(C)(=O)=O)nc(-c2ccc(F)cc2)c1/C=C/[C@@H](O)C[C@@H](O)CC(=O)O", "normalized growth": "1.01 (inactive)"}
{"MOLECULE": "C[C@]12CCC3c4ccc(OC(=O)c5ccccc5)cc4CCC3C1CCC2=O (stereo partly specified)", "normalized growth": "0.996 (inactive)"}
